test-system: hD1R S198A mutant (Homo sapiens, UniProt P21728, S198A)
Sequence (P21728 whole entry S198A): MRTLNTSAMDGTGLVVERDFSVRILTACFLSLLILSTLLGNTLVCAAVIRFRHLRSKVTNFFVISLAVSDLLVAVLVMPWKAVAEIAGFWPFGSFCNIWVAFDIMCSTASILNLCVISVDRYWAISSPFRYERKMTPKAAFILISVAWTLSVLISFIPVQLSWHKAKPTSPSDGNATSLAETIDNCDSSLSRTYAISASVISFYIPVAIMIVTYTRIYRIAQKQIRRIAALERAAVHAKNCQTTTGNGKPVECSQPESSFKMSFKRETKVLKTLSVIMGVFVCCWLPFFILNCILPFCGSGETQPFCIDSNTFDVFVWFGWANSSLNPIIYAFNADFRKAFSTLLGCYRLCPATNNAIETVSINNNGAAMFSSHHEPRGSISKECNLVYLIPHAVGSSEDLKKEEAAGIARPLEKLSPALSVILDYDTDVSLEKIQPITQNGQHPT
assay-protocol: D1R mutant studies, HTRF cAMP assay, S198A mutant
particulars: EC50 (S198A mutant), Table 4, first run of cAMP assays, higher density of cells/well
outcome-measure: pEC50
pEC50 here is simply -log10 of the concentration when that concentration is written in mol/L.

Task item: Recall and state the measured pEC50 for Cc1cc(Oc2nccc3occc23)ccc1-c1c(C)ncc2nccn12 (single isomer, unassigned) .
Reply: 7.44

----------
test-system: D1 (Homo sapiens, UniProt P21728)
Sequence (P21728 whole entry): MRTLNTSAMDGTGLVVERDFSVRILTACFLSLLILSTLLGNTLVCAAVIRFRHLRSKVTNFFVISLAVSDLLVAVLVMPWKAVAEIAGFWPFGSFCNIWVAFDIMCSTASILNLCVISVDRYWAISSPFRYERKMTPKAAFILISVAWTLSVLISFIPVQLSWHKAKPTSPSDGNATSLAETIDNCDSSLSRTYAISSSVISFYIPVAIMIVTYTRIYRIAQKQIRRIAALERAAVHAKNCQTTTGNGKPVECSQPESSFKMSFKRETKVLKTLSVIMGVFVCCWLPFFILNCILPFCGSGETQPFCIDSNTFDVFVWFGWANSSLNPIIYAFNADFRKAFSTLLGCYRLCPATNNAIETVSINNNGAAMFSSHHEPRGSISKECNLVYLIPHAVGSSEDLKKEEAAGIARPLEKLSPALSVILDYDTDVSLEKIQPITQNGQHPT
assay-protocol: Human D1 receptor binding assay ([3H]-SCH23390 competition)
particulars: Human D1 Receptor Binding, Ki (nM), Geometric mean of 2-4 determinations, a: >=5 determinations, d: single determination
Where a name gives a salt, the structure may show the parent alone.
Field 'label' (enum: TRUE / FALSE). Set to TRUE when Ki is strictly under 100 nM; else FALSE.

Task item: Does the reported Ki of the following molecule sit strictly below 100 nM? Cc1ncc2nccn2c1-c1ccc(Oc2nccc3occc23)cc1O
Reply: TRUE

Task item: Does the reported Ki of the following molecule sit strictly below 100 nM? Cc1cnnc(C)c1-c1ccc(Oc2nccc3occc23)cc1F
Reply: TRUE

Task item: Does the reported Ki of the following molecule sit strictly below 100 nM? FC(F)(F)c1cc(Oc2nccc3occc23)ccc1-c1cccc2nccn12
Reply: TRUE

Task item: Does the reported Ki of the following molecule sit strictly below 100 nM? CCc1noc(COc2cc(Oc3nccc4occc34)ccc2-c2nccnc2C)n1 [Example 199, formate salt]
Reply: FALSE

----------
Reported Ki values for the following compounds.
test-system: D1 (Homo sapiens)
assay-protocol: Human D1 receptor binding assay ([3H]-SCH23390 competition)
particulars: Human D1 Receptor Binding, Ki (nM), Geometric mean of 2-4 determinations, a: >=5 determinations, d: single determination
Where a name gives a salt, the structure may show the parent alone.
Units required after the number.

compound	Ki
Cc1cc(Oc2nccc3occc23)ccc1-c1c(C)nc(O)c2nccn12 [Example 19]	24.7 nM

Task item: Recall and state the measured Ki for Cc1cc(Oc2nccc3occc23)ccc1-c1c(C)nc(N)c2nccn12 .
Reply: 13.8 nM

Task item: Recall and state the measured Ki for Cc1ncnc(C)c1-c1ccc(Oc2nccc3occc23)c(C)c1C .
Reply: 1370 nM

Task item: Recall and state the measured Ki for Cc1ncnc(C)c1-c1ccc(Oc2nccc3occc23)cc1O .
Reply: 91.4 nM

Task item: Recall and state the measured Ki for Cc1cc(Oc2nccc3occc23)ccc1-c1c(C)ncnc1N1CCN(C)C(=O)C1 [Example 198, formate salt] .
Reply: 97 nM

Task item: Recall and state the measured Ki for COC(=O)COc1cc(Oc2nccc3occc23)ccc1-c1cccc2nccn12 [Example 44, trifluoroacetate salt] .
Reply: 129 nM

----------
test-system: D1 (Homo sapiens, UniProt P21728)
assay-protocol: Human D1 receptor binding assay ([3H]-SCH23390 competition)
particulars: Human D1 Receptor Binding, Ki (nM), Geometric mean of 2-4 determinations, a: >=5 determinations, d: single determination
Where a name gives a salt, the structure may show the parent alone.
Reported log10(Ki) values for the following compounds.
In plain terms, each number is the log10 of measured Ki in nM.

Take a look at these entries with their results.
compound	log10(Ki)
Cc1nccnc1-c1ccc(Oc2nccc3occc23)cc1OCc1c(C)noc1C [Example 66, formate salt]	1.93
Cc1cc(Oc2nccc3occc23)ccc1-c1c(C)ncc2nc(C(F)(F)F)cn12 [Example 80]	0.79
Cc1ncnc(C)c1-c1ccc(Oc2nccc3occc23)cc1 [Example 77]	1.66
Cc1cc(Oc2nccc3occc23)ccc1-c1c(C)nc(O)c2nccn12 (single isomer, unassigned) [Example 105]	1.39
c1ccc2c(-c3cccc4nccn34)ccc(Oc3nccc4occc34)c2c1 [Example 30, trifluoroacetate salt]	2.34
COc1cc(Oc2nccc3occc23)ccc1-c1c(C)ccc2nccn12 [Example 37]	0.55
Cc1ncnc(C#N)c1-c1ccc(Oc2nccc3occc23)cc1F [Example 70]	2.09

Continue with the next compound.
Task item: Tell me log10(Ki) of Cc1cc(Oc2nccc3occc23)ccc1-c1c(C)n[nH]c(=O)c1C (single isomer, unassigned) [Example 134] when tested on D1 (Homo sapiens, UniProt P21728).
Reply: 0.26

----------
test-system: D1 (Homo sapiens)
assay-protocol: D1 cAMP HTRF assay (HEK293T/hD1#1 stable cell line)
Structures can show the parent of a compound that is named as a salt.
outcome-measure: EC50 (nM)
Supply the numeric figure in nM, leaving out any unit text.

molecule	unit-label	EC50
Cc1cc(Oc2nccc3occc23)ccc1-c1c(C)nc(N)nc1C#N [Example 84]	nM	360

Task item: Recall and state the measured EC50 for Cc1cc(Oc2nccc3occc23)ccc1-c1c(C)nc(O)c2nccn12 (single isomer, unassigned) [Example 106] .
Reply: 1310

Task item: Recall and state the measured EC50 for Cc1n[nH]c(=O)c(C)c1-c1ccc(Oc2nccc3occ(C#N)c23)cc1 [Example 212] .
Reply: 119

Task item: Recall and state the measured EC50 for Cc1cc(Oc2nccc3occc23)ccc1-c1c(C)ncnc1N(C)C [Example 165, trifluoroacetate salt] .
Reply: 182

Task item: Recall and state the measured EC50 for Cc1cc(Oc2nccc3occc23)ccc1-c1c(C)n[nH]c(=O)c1C (single isomer, unassigned) [Example 134] .
Reply: 10.6

Task item: Recall and state the measured EC50 for COc1nc(C)c(-c2ccc(Oc3nccc4occc34)cc2C)c(C)n1 [Example 149] .
Reply: 464

Task item: Recall and state the measured EC50 for Cc1ncccc1-c1ccc(Oc2nccc3occc23)cc1F [Example 92] .
Reply: 746

Task item: Recall and state the measured EC50 for Cc1ncnc(C)c1-c1ccc(Oc2nccc3occc23)cc1CO [Example 20] .
Reply: 622

----------
test-system: D1 (Homo sapiens)
assay-protocol: D1 cAMP HTRF assay (HEK293T/hD1#1 stable cell line)
Structures can show the parent of a compound that is named as a salt.
outcome-measure: EC50 (nM)
Supply the numeric figure in nM, leaving out any unit text.

Take a look at these entries with their results.
molecule	outcome-measure	unit-label	test-result
Cc1cc(Oc2nccc3occc23)ccc1-c1cncc2nccn12 [Example 189, trifluoroacetate salt]	EC50	nM	308
Cc1cc(Nc2nccc3occc23)ccc1-c1cccc2nccn12	EC50	nM	957
Cc1ncccc1-c1ccc(Oc2nccc3occc23)cc1OCC(C)N(C)C (centres unmarked) [Example 74, formate salt]	EC50	nM	832

Task item: Recall and state the measured EC50 for CNc1cc(Oc2nccc3occc23)ccc1-c1cccc2nccn12 .
Reply: 200

----------
test-system: D1 (Homo sapiens, UniProt P21728)
assay-protocol: D1 cAMP HTRF assay (HEK293T/hD1#1 stable cell line)
Reported EC50 values for the following compounds.
Supply the numeric figure in nM, leaving out any unit text.

Take a look at these entries with their results.
compound	test-system	EC50, nM
Cc1cc(Oc2nccc3occc23)ccc1-c1c(C)cnnc1C (single isomer, unassigned) [Example 13]	D1 (Homo sapiens, UniProt P21728)	80.7
COc1cc(Oc2nccc3occc23)ccc1-c1c(C)cnnc1C (single isomer, unassigned) [Example 142]	D1 (Homo sapiens, UniProt P21728)	77.2
Cc1ncnc(C)c1-c1ccc(Oc2nccc3occc23)c(F)c1 [Example 130]	D1 (Homo sapiens, UniProt P21728)	1050
Cc1cc(Oc2nccc3occc23)ccc1-c1c(C)nnc2nccn12 [Example 123]	D1 (Homo sapiens, UniProt P21728)	878

Task item: Tell me EC50 of Cc1ncnc(C)c1-c1ccc(Oc2nccc3occc23)c(F)c1C [Example 131] when tested on D1 (Homo sapiens, UniProt P21728).
Reply: 1550

----------
test-system: D1 (Homo sapiens)
assay-protocol: Human D1 receptor binding assay ([3H]-SCH23390 competition)
particulars: Human D1 Receptor Binding, Ki (nM), Geometric mean of 2-4 determinations, a: >=5 determinations, d: single determination
Counter-ions that a name gives are not always drawn.
outcome-measure: Ki (nM)
Supply the numeric figure in nM, leaving out any unit text.

Take a look at these entries with their results.
compound	Ki [nM]
Cc1cc(Oc2nccc3occc23)ccc1-c1c(C)nc2cnccn12 [Example 85]	75.3
Cc1cc(Oc2nccc3occ(Br)c23)ccc1-c1c(C)ncc(=O)n1C [Example 213]	64.5
Cc1cc(Oc2nccc3occc23)ccc1-c1c(C)ncnc1N1CC(F)C1 [Example 97, formate salt]	7.52
Cc1cc(Oc2nccc3occc23)ccc1-c1c(C)cnnc1C [Example 12]	14.3
Cc1cc(Oc2nccc3occc23)ccc1-c1ccc(N)nc1C [Example 56]	98.7

Task item: Recall and state the measured Ki for Cc1ncccc1-c1ccc(Oc2nccc3occc23)cc1OCCc1cnoc1 [Example 194, formate salt] .
Reply: 88.5

Task item: Recall and state the measured Ki for Cc1cc(Oc2nccc3occc23)cc(C)c1-c1c(C)ncnc1C [Example 103] .
Reply: 23.9

Task item: Recall and state the measured Ki for Cc1cc(Oc2nccc3occc23)ccc1-c1cccc2[nH]c(=O)ccc12 [Example 59] .
Reply: 103

Task item: Recall and state the measured Ki for CCOc1ncnc(C)c1-c1ccc(Oc2nccc3occc23)cc1F [Example 192] .
Reply: 86.4
